The origin of these recorded values is ChEMBL document CHEMBL5113527.

Molecular target: Protein deacetylase HDAC6 (Homo sapiens)
Experiment: Binding affinity to recombinant HDAC6 (unknown origin) assessed as inhibition constant using Boc-Lys(acetyl)-AMC as substrate preincubated for 1 hr followed by substrate addition and measured after 2 hrs by fluorescence based microplate reader analysis
measurement kind: Ki (nM)
Provide only the numeric value, understood in nM.

GET /values?readout=Ki&system=Protein deacetylase HDAC6 (Homo sapiens)&item= "CCNNC(=O)c1ccc(CN2c3ccccc3C=Cc3ccncc32)cc1"
3

----------
Target: Protein deacetylase HDAC6 (Homo sapiens, UniProt Q9UBN7)
Assay: Inhibition of recombinant HDAC6 (unknown origin) using Boc-Lys(acetyl)-AMC as substrate preincubated for 30 mins followed by substrate addition and measured after 2 hrs by fluorescence based microplate reader analysis
measurement kind: IC50 (nM)
Provide only the numeric value, understood in nM.

What does the data say about its IC50? Entry: "CCNNC(=O)c1ccc(CN2c3ccccc3C=Cc3ccncc32)cc1"
31.7

----------
Biological target: Histone deacetylase 3 (Homo sapiens, UniProt O15379)
Sequence (O15379 whole entry): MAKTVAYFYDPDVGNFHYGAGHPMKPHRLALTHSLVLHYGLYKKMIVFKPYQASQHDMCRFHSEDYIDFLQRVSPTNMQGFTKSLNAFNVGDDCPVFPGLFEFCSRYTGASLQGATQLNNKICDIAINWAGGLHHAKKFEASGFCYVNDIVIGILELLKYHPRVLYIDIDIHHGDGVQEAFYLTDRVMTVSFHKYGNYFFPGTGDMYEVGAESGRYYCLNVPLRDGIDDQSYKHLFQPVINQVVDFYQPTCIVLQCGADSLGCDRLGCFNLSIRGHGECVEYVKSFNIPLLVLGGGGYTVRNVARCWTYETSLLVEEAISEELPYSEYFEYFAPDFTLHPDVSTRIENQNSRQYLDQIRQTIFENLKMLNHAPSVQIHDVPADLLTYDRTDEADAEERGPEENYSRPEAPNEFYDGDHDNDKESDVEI
Experiment: Binding affinity to recombinant HDAC3 (unknown origin) assessed as inhibition constant using Boc-Lys(acetyl)-AMC as substrate preincubated for 1 hr followed by substrate addition and measured after 2 hrs by fluorescence based microplate reader analysis
measurement kind: pKi
Value format note: pKi is -log10 of concentration (mol/L); just state the number.

GET /values?readout=pKi&system=Histone deacetylase 3 (Homo sapiens, UniProt O15379)&item= "CCNNC(=O)c1ccc(CN2c3ccccc3C=Cc3ccncc32)cc1"
6.37

----------
Assay: AUC(0 to infinity) in CD-1 mouse at 20 mg/kg, po measured after 0.083 to 24 hrs by LC-MS/MS analysis
Type: ADME, organism-based
Parameters: dose 20 mg/kg, time 0.083-24 hrs, route po
Settings: in vivo
measurement kind: AUC(0-inf)
Give the value; after it, write the unit.

What does the data say about its AUC(0-inf)? Entry: "CCNNC(=O)c1ccc(CN2c3ccccc3C=Cc3ccncc32)cc1"
10300 ng·h/mL

----------
Assay: Plasma concentration in CD-1 mouse at 20 mg/kg measured after 4 hrs by LC-MS/MS analysis
Type: ADME, organism-based
measurement kind: concentration at 4 h (ng/mL)
Provide only the numeric value, understood in ng/mL.

What does the data say about its concentration at 4 h? Entry: "CCNNC(=O)c1ccc(CN2c3ccccc3C=Cc3ccncc32)cc1"
162

----------
Target: Protein deacetylase HDAC6 (Homo sapiens)
Assay: Inhibition of recombinant HDAC6 (unknown origin) using Boc-Lys(acetyl)-AMC as substrate preincubated for 1 hr followed by substrate addition and measured after 2 hrs by fluorescence based microplate reader analysis
Recorded measurements of pIC50, one per entry
Value format note: pIC50 is -log10 of concentration (mol/L); just state the number.

Below: 5 compounds and their reported pIC50.
CCNNC(=O)c1ccc(CN2c3ccccc3C=Cc3ccccc32)cc1 ... 7.38
CCNNC(=O)c1ccc(Cn2c3ccccc3c3cccnc32)cc1 ... 7.43
CCNNC(=O)c1ccc(NC(=O)Nc2cccc3cccnc23)cc1 ... 5.82
CCNNC(=O)c1ccc(CN2c3ccccc3CC(=O)c3ccccc32)cc1 ... 6.98
CCNNC(=O)c1ccc(Cn2ccc3cc(C(=O)c4ccc(OC)cc4)ccc32)cc1 ... 6.35

What does the data say about its pIC50? Entry: "CCNNC(=O)c1ccc(CN2c3ccccc3C=Cc3ccc(F)cc32)cc1"
7.43

Param item: "CCNNC(=O)c1ccc(Cn2c(=O)n(CCc3ccccc3)c(=O)c3ccccc32)cc1"
6.84

Param item: "CCNNC(=O)c1ccc(CNC(=O)c2ccccc2)cc1"
7.11

Param item: "CCNNC(=O)c1ccc(CN2c3ccccc3C=Cc3ccc(C)cc32)cc1"
7.12

Param item: "CCNNC(=O)c1ccc(Cn2c3ccccc3c3ccncc32)cc1"
7.14

Param item: "CCNNC(=O)c1ccc(CN2c3ccccc3Sc3cccnc32)cc1"
7.21

Param item: "CCNNC(=O)c1ccc(CN2c3ccccc3Oc3ccccc32)cc1"
6.07

Param item: "CCNNC(=O)c1ccc(CN2c3ccccc3CCc3ccccc32)cc1"
6.60

Param item: "CCNNC(=O)c1ccc(Cn2c3ccccc3c3cnccc32)cc1"
6.96

Param item: "CCCCN(Cc1ccc(C(=O)NNCC)cc1)C(=O)c1ccccc1"
6.72

Param item: "CCNNC(=O)c1ccc(CN2c3ccccc3C=Cc3nc(C)nc(C)c32)cc1"
7.33

Param item: "CCNNC(=O)c1ccc(CN2c3ccccc3C=Cc3ccncc32)cc1"
7.72

Param item: "CCNNC(=O)c1ccc(CN2c3ccccc3Cc3ccccc32)cc1"
6.63

Param item: "CCNNC(=O)c1ccc(CN2c3ccccc3C=Cc3ccc(C(F)(F)F)cc32)cc1"
6.76

Param item: "CCNNC(=O)c1ccc(CNC(=O)Nc2cccc3cccnc23)cc1"
7.47

Param item: "CCNNC(=O)c1ccc(Cn2c3ccccc3c3ccccc32)cc1"
6.44

Param item: "CCNNC(=O)c1ccc(Cn2c3c(c4ccccc42)CCCC3)cc1"
6.34

Param item: "CCCCN(Cc1ccc(C(=O)NNCC)cc1)C(=O)Nc1ccccc1"
6.88

----------
Molecular target: Histone deacetylase 4 (Homo sapiens, UniProt P56524)
Sequence (P56524 whole entry): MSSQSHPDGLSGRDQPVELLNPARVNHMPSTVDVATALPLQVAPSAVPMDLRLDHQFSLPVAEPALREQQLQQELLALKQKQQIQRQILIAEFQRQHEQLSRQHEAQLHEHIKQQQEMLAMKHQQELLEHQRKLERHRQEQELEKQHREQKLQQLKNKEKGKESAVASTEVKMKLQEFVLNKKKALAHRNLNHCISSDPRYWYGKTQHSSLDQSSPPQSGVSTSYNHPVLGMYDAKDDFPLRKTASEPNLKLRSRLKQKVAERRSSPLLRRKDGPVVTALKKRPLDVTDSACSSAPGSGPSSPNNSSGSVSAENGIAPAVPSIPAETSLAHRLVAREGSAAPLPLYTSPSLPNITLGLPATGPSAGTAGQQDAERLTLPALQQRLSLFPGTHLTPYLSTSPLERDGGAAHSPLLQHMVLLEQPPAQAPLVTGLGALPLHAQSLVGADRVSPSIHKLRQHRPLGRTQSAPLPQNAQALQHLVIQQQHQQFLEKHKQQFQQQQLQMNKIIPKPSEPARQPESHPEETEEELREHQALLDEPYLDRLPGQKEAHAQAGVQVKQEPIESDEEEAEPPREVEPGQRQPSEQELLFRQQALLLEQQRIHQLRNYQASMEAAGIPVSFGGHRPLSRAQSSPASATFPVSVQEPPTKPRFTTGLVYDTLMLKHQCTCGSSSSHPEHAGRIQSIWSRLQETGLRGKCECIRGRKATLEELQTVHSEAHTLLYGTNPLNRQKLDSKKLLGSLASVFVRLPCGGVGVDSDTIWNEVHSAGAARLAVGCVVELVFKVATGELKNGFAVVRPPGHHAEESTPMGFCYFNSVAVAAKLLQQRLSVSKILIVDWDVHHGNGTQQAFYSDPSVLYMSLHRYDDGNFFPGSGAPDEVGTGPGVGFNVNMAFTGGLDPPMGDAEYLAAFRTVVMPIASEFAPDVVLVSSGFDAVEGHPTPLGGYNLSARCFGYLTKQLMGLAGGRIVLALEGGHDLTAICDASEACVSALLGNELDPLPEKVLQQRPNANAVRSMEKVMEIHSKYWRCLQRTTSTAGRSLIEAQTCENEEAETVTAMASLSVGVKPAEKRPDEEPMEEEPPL
Experiment: Inhibition of recombinant HDAC4 (unknown origin) using Boc-Lys (trifluoroacetyl) AMC as substrate preincubated for 1 hr followed by substrate addition and measured after 2 hrs by fluorescence based microplate reader analysis
measurement kind: IC50

What does the data say about its IC50? Entry: "CCNNC(=O)c1ccc(CN2c3ccccc3C=Cc3ccncc32)cc1"
> 5 µM

----------
Target: Histone deacetylase 3 (Homo sapiens)
Assay: Inhibition of recombinant HDAC3 (unknown origin) using Boc-Lys(acetyl)-AMC as substrate preincubated for 1 hr followed by substrate addition and measured after 2 hrs by fluorescence based microplate reader analysis
measurement kind: IC50 (nM)
Provide only the numeric value, understood in nM.

CCNNC(=O)c1ccc(Cn2c3ccccc3c3cccnc32)cc1 ... 1590
CCNNC(=O)c1ccc(CN2c3ccccc3Sc3cccnc32)cc1 ... 1770
CCNNC(=O)c1ccc(CN2c3ccccc3C=Cc3ccc(C(F)(F)F)cc32)cc1 ... 1850
CCNNC(=O)c1ccc(CN2c3ccccc3CCc3ccccc32)cc1 ... 3950
CCNNC(=O)c1ccc(CN2c3ccccc3C=Cc3ccncc32)cc1 ... 1030

What does the data say about its IC50? Entry: "CCNNC(=O)c1ccc(CN2c3ccccc3Cc3ccccc32)cc1"
1430

Param item: "CCNNC(=O)c1ccc(CN2c3ccccc3C=Cc3nc(C)nc(C)c32)cc1"
1160

Param item: "CCNNC(=O)c1ccc(Cn2ccc3cc(C(=O)c4ccc(OC)cc4)ccc32)cc1"
217

Param item: "CCNNC(=O)c1ccc(CN2c3ccccc3C=Cc3ccc(F)cc32)cc1"
563

----------
Test: Half life in CD-1 mouse at 20 mg/kg, po measured after 0.083 to 24 hrs by LC-MS/MS analysis
Type: ADME, organism-based
Conditions: in vivo, time 0.083-24 hrs
measurement kind: half-life (h)
Provide only the numeric value, understood in h.

What does the data say about its half-life? Entry: "CCNNC(=O)c1ccc(CN2c3ccccc3C=Cc3ccncc32)cc1"
6.8

----------
Target: Protein deacetylase HDAC6 (Homo sapiens)
Sequence (Q9UBN7 whole entry): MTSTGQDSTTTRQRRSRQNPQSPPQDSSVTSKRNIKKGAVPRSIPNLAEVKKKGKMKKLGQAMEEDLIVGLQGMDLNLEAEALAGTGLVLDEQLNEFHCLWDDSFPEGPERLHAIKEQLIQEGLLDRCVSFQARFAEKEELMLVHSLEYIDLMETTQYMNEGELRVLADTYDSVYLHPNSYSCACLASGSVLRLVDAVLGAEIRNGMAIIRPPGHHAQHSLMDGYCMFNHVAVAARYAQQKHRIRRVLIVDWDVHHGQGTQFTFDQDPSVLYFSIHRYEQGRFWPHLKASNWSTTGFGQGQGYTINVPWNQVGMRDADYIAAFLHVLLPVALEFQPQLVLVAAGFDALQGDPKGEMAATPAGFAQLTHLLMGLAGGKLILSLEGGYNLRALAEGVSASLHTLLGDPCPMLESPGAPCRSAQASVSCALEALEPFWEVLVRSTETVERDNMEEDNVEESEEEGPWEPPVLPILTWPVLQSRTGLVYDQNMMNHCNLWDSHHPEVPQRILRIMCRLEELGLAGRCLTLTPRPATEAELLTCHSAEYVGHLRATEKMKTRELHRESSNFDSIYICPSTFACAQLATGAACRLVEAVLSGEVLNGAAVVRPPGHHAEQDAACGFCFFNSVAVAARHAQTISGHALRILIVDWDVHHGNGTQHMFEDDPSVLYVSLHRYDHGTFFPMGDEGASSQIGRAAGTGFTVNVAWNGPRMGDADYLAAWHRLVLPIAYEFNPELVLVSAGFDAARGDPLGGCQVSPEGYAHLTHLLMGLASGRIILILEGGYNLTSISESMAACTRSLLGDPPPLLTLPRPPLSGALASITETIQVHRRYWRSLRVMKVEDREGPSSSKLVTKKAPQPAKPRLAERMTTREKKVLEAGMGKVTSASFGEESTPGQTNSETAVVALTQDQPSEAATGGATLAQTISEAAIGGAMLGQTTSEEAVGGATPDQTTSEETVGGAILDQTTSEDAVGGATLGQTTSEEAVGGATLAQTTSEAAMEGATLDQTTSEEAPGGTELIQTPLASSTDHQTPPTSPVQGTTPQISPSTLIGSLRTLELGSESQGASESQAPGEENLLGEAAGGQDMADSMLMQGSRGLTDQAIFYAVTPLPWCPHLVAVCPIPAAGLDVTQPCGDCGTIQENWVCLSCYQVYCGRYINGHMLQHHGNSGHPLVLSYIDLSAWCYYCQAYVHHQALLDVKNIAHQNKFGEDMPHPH
Experiment: Inhibition of recombinant HDAC6 (unknown origin) using Boc-Lys(acetyl)-AMC as substrate preincubated for 0 min followed by substrate addition and measured after 2 hrs by fluorescence based microplate reader analysis
measurement kind: pIC50
Value format note: pIC50 is -log10 of concentration (mol/L); just state the number.

What does the data say about its pIC50? Entry: "CCNNC(=O)c1ccc(CN2c3ccccc3C=Cc3ccncc32)cc1"
6.34
